Entries and their viability at 65 h, 100 µM values follow.
- Test Protocol: Cell viability assay (EZ-Cytox), cytotoxicity
- Assay type: cell-based
- Assay Context: human, HepAD38 cells, @100 μM, read-out: Cytotoxicity % Livability (@100 μM)
Record the value in %, omitting the unit from your answer.

Examples with their reported viability at 65 h, 100 µM follow.
- Compound: "COc1ncc(N(Cc2cc(C(F)(F)F)[nH]n2)C(=O)Nc2ccnc(C#N)c2)cn1"
  viability at 65 h, 100 µM, %: 112
- Compound: "COc1ncc(N(Cc2cc(C(F)(F)F)[nH]n2)C(=O)Nc2ccc(F)c(C(F)F)n2)cn1"
  viability at 65 h, 100 µM, %: 82.3
- Compound: "COC12CC(N(Cc3cc(C(F)(F)F)[nH]n3)C(=O)Nc3ccc(F)c(C(F)F)c3)(C1)C2"
  viability at 65 h, 100 µM, %: 63.1
- Compound: "COc1ncc(N(Cc2cc(C(F)(F)F)[nH]n2)C(=O)Nc2ccc(F)c(Cl)c2)c(C)n1"
  viability at 65 h, 100 µM, %: 7
- Compound: "N#Cc1cncc(N(Cc2n[nH]c3c2COCC3)C(=O)Nc2ccc(F)c(Cl)c2)c1"
  viability at 65 h, 100 µM, %: 93.1
- Compound: "COc1ccc(N(Cc2n[nH]c3c2CCCC3)C(=O)Nc2ccc(F)c(Cl)c2)cc1"
  viability at 65 h, 100 µM, %: 4.1

Given the compound "COc1ccc(N(Cc2n[nH]c3c2CC(F)(F)CC3)C(=O)Nc2ccc(F)c(Cl)c2)cn1" , what is its reported viability at 65 h, 100 µM?
4.6

Thanks! And COc1ccc(N(Cc2n[nH]c3c2CC(C(=O)O)CC3)C(=O)Nc2ccc(F)c(Cl)c2)cn1 (centres unmarked) ?
100

Values were extracted from patent US20250009742A1.
